Reference source for all entries: the NIST ThermoML archive (doi:10.1021/je030226s)

# protocolDescription: refractive index (Na D-line) (dimensionless); xn = mol fraction of the nth substance listed
# conditionContext: 288.15 K; 101.32 kPa; Liquid; x2 = 0.1
± gives the expanded uncertainty stated by the source.
So I've got a bunch of compounds here, and I need their refractive index values.

Please review the entries below; each comes with its answer.
compound | result
CCCCCl [1-chlorobutane] + CCCCO | 1.4039 ± 0.0006
CCCCCl [1-chlorobutane] + CO | 1.4015 ± 0.0006
CCCCCl [1-chlorobutane] + CCO | 1.4016 ± 0.0006

So for CCCCCl [1-chlorobutane] + CCCO , the logged refractive index turned out to be 1.4028 ± 0.0006
